- Test system: HCT-15 colon
- ASSAY REMARKS: NCI tumour cell line growth inhibition, 48 h
# reported TGI; entries follow

MOLECULE	MEASURED TARGET	TGI
COc1ccc(NC/C=C/C(=C/COC(C)=O)OC(C)=O)cc1	HCT-15 colon	5.1 µM
COC1=C(OC)C(=O)C(CCCCCCCCCCO)=C(C)C1=O	HCT-15 colon	24.5 µM
CSC1=Nc2c(c(C)c(-c3ccccc3)n2COC(CO)CO)C2=NC(=O)CN12	HCT-15 colon	> 100 µM
COc1cc(-c2ncn(/C=C\c3nnco3)n2)cc(C(F)(F)F)c1	HCT-15 colon	> 100 µM
O=c1[nH]c(=O)n(C2C(CO)OC(CO)C2O)cc1F (configuration not stated)	HCT-15 colon	> 100 µM
O/N=C1/CCCc2nonc21	HCT-15 colon	> 100 µM
CC(C)=CCC/C(C)=C/CCC1(C)C=Cc2c(c3ccccc3oc2=O)O1 (configuration not stated)	HCT-15 colon	30.2 µM
NC(=O)CC(N)c1nn[nH]n1 (configuration not stated)	HCT-15 colon	> 100 µM
C=CCN(CC=C)C(=O)[C@H](CC)[C@@H]1CC[C@@H](C)[C@@H]([C@H](C)[C@@H](O)[C@@H](C)C(=O)[C@H](CC)C2O[C@]3(C=C[C@@H](O)[C@]4(CC[C@@](C)([C@H]5CC[C@](O)(CC)[C@H](C)O5)O4)O3)[C@H](C)C[C@@H]2C)O1 (some centres not stated)	HCT-15 colon	4.81 µM
COc1c(CC=C(C)C)c(O)c(C(CC(C)C)c2c(O)c(CC=C(C)C)c(O)c(C(C)=O)c2O)c(O)c1C(C)=O (configuration not stated)	HCT-15 colon	2.62 µM
Cc1c(C2=NN=C(N=Nc3c(O)cccc3O)/C2=C/c2ccccc2)c(=O)n(-c2ccccc2)n1C	HCT-15 colon	> 100 µM
C=CC(=O)N[C@@H](/C=C/C(=O)OCC)Cc1ccc(-c2cc(Cl)cc(Cl)c2)cc1	HCT-15 colon	> 100 µM
C/C(N)=N/OCc1nc(C)no1	HCT-15 colon	> 100 µM
CN(C)CCCn1c2c(c3cc4c(cc3c1=O)OCO4)C(=O)c1ccccc1-2	HCT-15 colon	4.35 µM
COC(=O)[C@@]1(NC(=O)C(CC(=O)OC(C)(C)C)NC(=O)OC(C)(C)C)C[C@H]1C (some centres not stated)	HCT-15 colon	> 100 µM
COC(=O)c1ccc(C=C(C#N)C#N)cc1	HCT-15 colon	> 100 µM
CC(C)(C)c1cc(C(=O)O)c2c(c1)C(=O)OC2(c1ccccc1)c1ccccc1C(=O)O (configuration not stated)	HCT-15 colon	> 100 µM
CC1=NNC(=S)NCCCN2CCN(CCCNC(=S)NN=C(C)C=NNC(=S)NCCCN3CCN(CCCNC(=S)NN=C1)CC3)CC2	HCT-15 colon	> 100 µM
N#C/C(=C\c1cc2ccc(N3CCC3)cc2oc1=O)C(=O)N(CC(=O)O)CC(=O)O	HCT-15 colon	> 100 µM
O=[N+]([O-])/C=C/c1cn(CCCCCCCCCCCCn2cc(/C=C/[N+](=O)[O-])c3ccccc32)c2ccccc12	HCT-15 colon	> 100 µM
C=CCNC(=O)CN(CC(=O)O)C1CCCCC1N(CC(=O)O)CC(=O)O (configuration not stated)	HCT-15 colon	> 100 µM
C[C@@]1(OC(=O)c2cc([N+](=O)[O-])cc([N+](=O)[O-])c2)C[C@@H]2CCCC[C@@H]21	HCT-15 colon	> 100 µM
Cc1ccc(Cl)cc1-n1c(C)nc2c(cnn2-c2ccnc3c(C(F)(F)F)cccc23)c1=O	HCT-15 colon	> 100 µM
O=C(CC(=O)c1ccccc1)C(=O)Nc1ccc(Cl)cc1	HCT-15 colon	> 59.7 µM
C=C[C@]1(O[Si](C)(C)C)C[C@@]2(C(=O)OCC)C(O)C(=O)N3CCc4cc(OC)c(OC)cc4[C@]312 (some centres not stated)	HCT-15 colon	> 100 µM
C[C@H](NC(=O)CNC(=O)CCCCCC(=O)NCC(=O)N[C@@H](C)C(=O)OCc1ccccc1)C(=O)OCc1ccccc1	HCT-15 colon	> 100 µM
COC1=C(OC)[C@]2(OC)c3c(O)c(OC)c4c(c3O[C@@]23O[C@@H](c2ccccc2)CC=C3C1=O)[C@@H](OC)C[C@H](c1ccccc1)O4	HCT-15 colon	0.819 µM
CC1(C)[C@H](O)[C@H](F)C[C@@]2(C)Oc3ccc(C(=O)Nc4ccc5c(c4)NC(=O)C54CCN(CCCCC#N)CC4)cc3C[C@H]12	HCT-15 colon	19.1 µM
CNC(=O)CCCNC(=O)CCCC(=O)OC	HCT-15 colon	> 100 µM
Cc1ccc(S(=O)(=O)NC(=O)OC23COCN2COC3)cc1	HCT-15 colon	> 100 µM
CNC(=O)N1N[C@H](c2ccccc2)[C@@H]1c1ccccc1	HCT-15 colon	64 µM
BrCc1ccc(CBr)c2c1-c1c(CBr)ccc3ccc(CBr)c-2c13	HCT-15 colon	> 100 µM
Nc1nc(C(=O)O)c(N=Nc2ccccc2)c(=O)[nH]1	HCT-15 colon	> 100 µM
CN1CCCC1c1cccnc1.O=C(O)c1ccccc1O.O=C([O-])c1ccccc1[OH2+].O=C([O-])c1ccccc1[OH2+].[Mn+2] (configuration not stated)	HCT-15 colon	> 100 µM
CCN1C[C@]2(C)CC[C@H](OC)C34C5C[C@@H]6[C@@H](OC)C[C@@](OC)(C5[C@H]6OCc5ccccc5)C(C13)[C@H](OC(C)=O)[C@@H]42 (some centres not stated)	HCT-15 colon	> 100 µM
c1ccc(C2CCCCC2)c(OCCCCCN2CCNCC2)c1	HCT-15 colon	4.05 µM
CCCC(=O)OCOC(=O)N(C)N=Nc1ccc(C(=O)OCC)cc1	HCT-15 colon	75.4 µM

Numbers sourced from PubChem BioAssay (NCI).
